- Target system: recombinant JAK3 (catalytic domain, aa 781-1124) (Homo sapiens (Human), UniProt P52333)
- Sequence (P52333 781-1124): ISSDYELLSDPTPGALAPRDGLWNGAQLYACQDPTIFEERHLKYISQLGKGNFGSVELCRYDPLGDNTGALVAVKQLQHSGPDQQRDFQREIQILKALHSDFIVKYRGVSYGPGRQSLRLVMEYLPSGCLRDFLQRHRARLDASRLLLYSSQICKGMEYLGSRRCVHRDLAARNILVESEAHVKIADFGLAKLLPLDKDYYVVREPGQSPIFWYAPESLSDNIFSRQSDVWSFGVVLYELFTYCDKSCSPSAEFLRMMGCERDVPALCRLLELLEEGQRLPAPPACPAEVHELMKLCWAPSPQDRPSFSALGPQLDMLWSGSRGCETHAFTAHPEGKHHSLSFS
- Test description: JAK3 Caliper Peptide Phosphorylation Assay
- Experimental conditions: fluorescently labeled Srctide substrate 1 uM; ATP at 1×Km (2 uM); 2 hours at 25° C.
log10 IC50 overview
Measured parameter: log10 IC50 (log10 of the value in nM)

[[record]]
structure_smiles_string = "CCNC(=O)C(C#N)=Cc1ccc(Nc2cnc3[nH]cc(C(=O)C(C)(C)C)c3n2)cc1"
measured_parameter = "log10 IC50"
measured_number = 0.00

[[record]]
structure_smiles_string = "CN(C)C(=O)C(C#N)=Cc1ccc(Nc2cnc3[nH]cc(C(=O)C(C)(C)C)c3n2)c(F)c1"
measured_parameter = "log10 IC50"
measured_number = -0.30

[[record]]
structure_smiles_string = "CC(C)(C)C(=O)c1c[nH]c2ncc(Nc3ccc(C=C(C#N)C(=O)N4CCCCC4)cc3)nc12"
measured_parameter = "log10 IC50"
measured_number = 0.00

[[record]]
structure_smiles_string = "CC(C)(C)C(=O)c1c[nH]c2ncc(-c3cccc(NC(=O)C(C#N)=CC4CC4)c3)nc12"
measured_parameter = "log10 IC50"
measured_number = 2.54

[[record]]
structure_smiles_string = "CC(C)NC(=O)c1c[nH]c2ncc(Oc3cccc(C=C(C#N)C(=O)N(C)C)c3)nc12"
measured_parameter = "log10 IC50"
measured_number = 3.06

[[record]]
structure_smiles_string = "COc1c(C=C(C#N)C(=O)N(C)C)cccc1Nc1ncnc2[nH]ccc12"
measured_parameter = "log10 IC50"
measured_number = 3.34

[[record]]
structure_smiles_string = "CC(C)(C)C(=O)c1c[nH]c2ncc(Nc3ccc(C=C4SC(=O)N(CCN)C4=O)cc3)nc12"
measured_parameter = "log10 IC50"
measured_number = 0.48

[[record]]
structure_smiles_string = "CN(C)CCN1C(=O)SC(=Cc2ccc(Nc3cnc4[nH]cc(C(=O)C(C)(C)C)c4n3)cc2)C1=O"
measured_parameter = "log10 IC50"
measured_number = 0.48

[[record]]
structure_smiles_string = "CC(C)(C)C(=O)c1c[nH]c2ncc(Nc3ccc(C=C(C#N)c4nccs4)cc3)nc12"
measured_parameter = "log10 IC50"
measured_number = 1.58

[[record]]
structure_smiles_string = "CCN1C(=O)SC(=Cc2ccc(Nc3cnc4[nH]cc(C(=O)C(C)(C)C)c4n3)cc2)C1=O"
measured_parameter = "log10 IC50"
measured_number = 1.53

[[record]]
structure_smiles_string = "CN(C)C(=O)C(C#N)=Cc1ccc(-c2cnc3[nH]cc(C(=O)C(C)(C)C)c3n2)cc1"
measured_parameter = "log10 IC50"
measured_number = 2.83

[[record]]
structure_smiles_string = "CN(C)C(=O)C(C#N)=Cc1ccc(Nc2ncnc3[nH]ccc23)cc1"
measured_parameter = "log10 IC50"
measured_number = 2.76

[[record]]
structure_smiles_string = "CC(C)NC(=O)c1c[nH]c2ncc(Nc3ccc(C=C(C#N)C(=O)N4CCNCC4)cc3)nc12"
measured_parameter = "log10 IC50"
measured_number = -0.70

[[record]]
structure_smiles_string = "CN(C)C(=O)C(C#N)=Cc1ccc(Nc2cnc3[nH]cc(C(=O)C(C)(C)C)c3n2)cc1F"
measured_parameter = "log10 IC50"
measured_number = -0.15

[[record]]
structure_smiles_string = "CN(C)C(=O)C(C#N)=Cc1ccc(Nc2cnc3[nH]cc(C(=O)C(C)(C)C)c3n2)cc1"
measured_parameter = "log10 IC50"
measured_number = 0.00

[[record]]
structure_smiles_string = "CN(C)C(=O)C(C#N)=Cc1ccc(Nc2cnc3[nH]cc(C(=O)C(C)(C)C)c3n2)cc1Cl"
measured_parameter = "log10 IC50"
measured_number = 0.00

[[record]]
structure_smiles_string = "CN(C)C(=O)C(C#N)=Cc1cccc(-c2ncnc3[nH]ccc23)c1"
measured_parameter = "log10 IC50"
measured_number = 2.48

[[record]]
structure_smiles_string = "CN(C)C(=O)C(C#N)=Cc1ccc(Nc2cnc3[nH]cc(C(=O)NC(C)(C)C)c3n2)cc1"
measured_parameter = "log10 IC50"
measured_number = -0.70

[[record]]
structure_smiles_string = "CN(C)C(=O)C(C#N)=Cc1cc(Nc2ncnc3[nH]ccc23)ccc1Cl"
measured_parameter = "log10 IC50"
measured_number = 3.25

[[record]]
structure_smiles_string = "CN(C)C(=O)C(C#N)=Cc1ccc(Oc2ncnc3[nH]ccc23)cc1"
measured_parameter = "log10 IC50"
measured_number = 2.45

[[record]]
structure_smiles_string = "CC(C)(C)C(=O)c1c[nH]c2ncc(Nc3ccc(C=C(C#N)C(=O)N4CCC4)cc3)nc12"
measured_parameter = "log10 IC50"
measured_number = -0.40

[[record]]
structure_smiles_string = "CN(C)C(=O)C(C#N)=Cc1ccc(Nc2cnc3[nH]cc(C(=O)C(C)(C)C)c3n2)cn1"
measured_parameter = "log10 IC50"
measured_number = -0.05


The reported measurements were obtained from patent US9187487B2.
